These entries and their values trace back to ChEMBL document CHEMBL2169820.

Target: Bcl-2-like protein 1 (Homo sapiens, UniProt Q07817)
Sequence (Q07817 whole entry): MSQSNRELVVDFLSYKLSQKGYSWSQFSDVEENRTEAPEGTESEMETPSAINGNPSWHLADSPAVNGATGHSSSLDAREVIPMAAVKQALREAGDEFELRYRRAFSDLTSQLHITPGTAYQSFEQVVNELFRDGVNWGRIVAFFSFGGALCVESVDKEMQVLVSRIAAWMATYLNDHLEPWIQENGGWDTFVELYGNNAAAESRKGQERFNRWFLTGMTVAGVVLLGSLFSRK
Assay: Inhibition of Bcl-XL-mediated cell death reduction expressed in serum starved mouse 3T3 cells assessed as residual cell viability at 5 uM incubated for 96 hrs by propidium iodide staining based FACS method
Details: NIH3T3
measurement_label: Activity (%)
Give bare numbers, in %.

Some compounds with recorded Activity:
- smiles_representation: "CCCOc1ccc2c(C(C)C)cc(-c3cc4ccccc4nc3N3CCOCC3)cc2n1"
  Activity / %: 32.7
- smiles_representation: "CCCOc1nc2cc(-c3cc4ccccc4nc3N3CCCC3)cc(C(C)C)c2cc1-c1cc(C(C)C)c2ccc(N3CCOCC3)nc2c1"
  Activity / %: 96.5
- smiles_representation: "CCOc1nc2cc(-c3cc4ccccc4nc3N3CCCC3)cc(C(C)C)c2cc1-c1cc(C(C)C)c2ccc(N3CCCC3)nc2c1"
  Activity / %: 95.1
- smiles_representation: "CCCOc1nc2ccccc2cc1-c1cc(C(C)C)c2ccc(N3CCCC3)nc2c1"
  Activity / %: 86.8

Record Activity per entry; entries follow.
1. CCCOc1nc2cc(-c3cc4ccccc4nc3N3CCOCC3)cc(C(C)C)c2cc1-c1cc(C(C)C)c2ccc(OCC)nc2c1
2. CCCOc1nc2ccccc2cc1-c1cc(C(C)C)c2cc(-c3cc(C(C)C)c4ccc(N5CCOCC5)nc4c3)c(OCCC)nc2c1
3. CCCOc1nc2cc(-c3cc4ccccc4nc3N3CCOCC3)cc(C(C)C)c2cc1-c1cc(C(C)C)c2ccc(N3CCCC3)nc2c1
4. CCOc1ccc2c(C(C)C)cc(-c3cc4c(C(C)C)cc(-c5cc6ccccc6nc5N5CCCC5)cc4nc3OCC)cc2n1
5. CCCOc1nc2cc(-c3cc4ccccc4nc3N3CCOCC3)cc(C(C)C)c2cc1-c1cc(C(C)C)c2ccc(N3CCOCC3)nc2c1

Response:
1. 95.2
2. 92.9
3. 93.4
4. 95.3
5. 81.6
